B1: library; numbered along this chain (parent)
chain: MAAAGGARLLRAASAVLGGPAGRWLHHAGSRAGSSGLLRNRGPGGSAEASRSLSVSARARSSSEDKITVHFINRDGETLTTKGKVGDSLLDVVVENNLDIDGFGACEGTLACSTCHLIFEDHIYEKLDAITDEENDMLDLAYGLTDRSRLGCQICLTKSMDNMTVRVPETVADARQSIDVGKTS

- Variants of: B1
- Protocol text: scaled log2 fold change in cell abundance, elesclomol vs control (0 = silent mean, 1 = nonsense mean) (scaled log2 ratio); higher = higher viability under elesclomol (loss of FDX1 cuproptosis function);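 also: variant abundance is its share of total variant reads in each endpoint sample, from next-generation sequencing of the integrated ORF PCR-amplified out of genomic DNA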
- Conditions used: with HEK293T FDX1 KO; elesclomol 40 nM; glucose 10 mM; 11 days
Measurement name: scaled log2 fold change

Consider the reported scaled log2 fold change for these variants:
| Mutant label | scaled log2 fold change |
| --- | --- |
| T145Q | -1.28 |
| I154H | 0.163 |
| D99F | 0.0629 |
| D136C | 0.938 |

State recorded scaled log2 fold change for all listed variants.
1. P43E
2. N97A

[0.236, 0.975]

State recorded scaled log2 fold change for all listed variants.
1. V55W
2. E107D
3. R39V
4. A174K
5. L156Y

[-0.549, 0.683, -0.208, 0.0836, 0.941]
